// values below are reported change in vivo at 30 mg/kg
Test system: serum lipoproteins
Test Details: Effect on serum lipoproteins of normolipemic male rats in a subchronic experiment
Format: in vivo
Test Context: Rattus norvegicus, po, 30 mg/kg/day, by stomach tube, 7 administrations, read-out: Serum LDL protein, % change from control at end of treatment
Where a name gives a salt, the structure may show the parent alone.
Assay Readout: change in vivo at 30 mg/kg (%)

- CCCCN(C(=O)c1cnc(N2CCNC2=O)nc1N)c1cccc(C(F)(F)F)c1 [Example 55, hydrochloride]: -9
- CN(C(=O)c1cnc(N2CC(C)(C)NC2=O)nc1N)c1cc(C(F)(F)F)ccc1F [Example 28]: -62
- CCCCN(C(=O)c1cnc(N2CC(C)(C)NC2=O)nc1N)c1cccc(C(F)(F)F)c1 [Example 6, hydrochloride]: -36
- C=CCN(C(=O)c1cnc(N2CC(C)(C)NC2=O)nc1N)c1cccc(C(F)(F)F)c1 [Example 40]: -52
- CC(C)(C)CN(C(=O)c1cnc(N2CC(C)(C)NC2=O)nc1N)c1cccc(C(F)(F)F)c1 [Example 37]: -49
- CCC(C)N(C(=O)c1cnc(N2CC(C)(C)NC2=O)nc1N)c1cccc(C(F)(F)F)c1 (stereo not shown) [Example 8, hydrochloride]: -18
- CN(C(=O)c1cnc(N2CCNC2=O)nc1N)c1cccc(C(F)(F)F)c1 [Example 64, hydrochloride]: -10

###

Tested on: serum lipoproteins
Test Details: Effect on serum lipoproteins of normolipemic male rats in a subchronic experiment
Type: in vivo
Test Context: Rattus norvegicus, po, 3 mg/kg/day, by stomach tube, 7 administrations, read-out: Serum VLDL protein, % change from control at end of treatment
Protocol: 3. In vivo, the increased LDL receptor activity in experimental animals is reflected by reduction in the lipoprotein fractions which can be metabolized by the LDL receptor (apoB/E receptor), i.e. a reduction in the LDL and VLDL levels is observed. The following test was carried out: Effect on serum lipoproteins of normolipemic male rats in a subchronic experiment […]
Counter-ions that a name gives are not always drawn.
The label depends only on change in vivo at 3 mg/kg: Fulfilled if it is at least -10%, Not fulfilled if it is smaller.

- C=CCN(C(=O)c1cnc(N2CC(C)(C)NC2=O)nc1N)c1cccc(C(F)(F)F)c1 [Example 40]: Not fulfilled
- CC1(C)CN(c2ncc(C(=O)N(CC3CC3)c3cccc(C(F)(F)F)c3)c(N)n2)C(=O)N1 [Example 12, hydrochloride]: Fulfilled
- CCCCN(C(=O)c1cnc(N2CC(C)(C)NC2=O)nc1N)c1cccc(C(F)(F)F)c1 [Example 6, hydrochloride]: Not fulfilled
- CCN(C(=O)c1cnc(N2CC(C)(C)NC2=O)nc1N)c1cccc(C(F)(F)F)c1 [Example 2, hydrochloride]: Fulfilled
- CN(C(=O)c1cnc(N2CC(C)(C)NC2=O)nc1N)c1cc(C(F)(F)F)ccc1F [Example 28]: Not fulfilled
- CC1(C)CN(c2ncc(C(=O)N(c3cccc(C(F)(F)F)c3)C3CCCC3)c(N)n2)C(=O)N1 [Example 42]: Not fulfilled

###

Test Details: Solubility in water of salts (and free bases)
Format: physicochemical
Test Context: Table 1, N-H analogs; temp. by No. [°C]: 1 25.0; 2 23.0; 3 26.2; 4 25.1; 5 25.2; 6 24.1; 7 24.5; 8 24.2; 9 24.2; 10 25.7; 11 25.8
// values below are reported 1 part by mass dissolves in ... parts of H2O
Assay Readout: 1 part by mass dissolves in ... parts of H2O

• COc1ccc(NC(=O)c2cnc(N3CC(C)(C)NC3=O)nc2N)cc1C(F)(F)F [No. 7 (Table 1), reference compound] = 554 parts of H2 O
• CCCC1(C)CN(c2ncc(C(=O)Nc3cc(C(F)(F)F)ccc3Cl)c(N)n2)C(=O)N1 (stereo not shown) [No. 8 (Table 1), reference compound] = 781 parts of H2 O
• CC1(C)CN(c2ncc(C(=O)Nc3ccc(F)c(C(F)(F)F)c3)c(N)n2)C(=O)N1 [No. 3 (Table 1), reference compound] = 703 parts of H2 O
• CCCC1(C)CN(c2ncc(C(=O)Nc3cccc(C(F)(F)F)c3)c(N)n2)C(=O)N1 (stereo not shown) [No. 10 (Table 1), reference compound] = 255 parts of H2 O

###

// values below are reported solubility
Test Details: Solubility in water of salts (and free bases)
Assay type: physicochemical
Test Context: water; Table 1, N-H analogs; temp. by No. [°C]: 1 25.0; 2 23.0; 3 26.2; 4 25.1; 5 25.2; 6 24.1; 7 24.5; 8 24.2; 9 24.2; 10 25.7; 11 25.8; read-out: Solubility in water, Molarity × 10^-3
Assay Readout: solubility (mM)

• COc1ccc(NC(=O)c2cnc(N3CC(C)(C)NC3=O)nc2N)cc1C(F)(F)F [No. 7 (Table 1), reference compound] = 3.92
• CCCC1(C)CN(c2ncc(C(=O)Nc3cccc(C(F)(F)F)c3)c(N)n2)C(=O)N1 (stereo not drawn) [No. 10 (Table 1), reference compound] = 8.54
• CC1(C)CN(c2ncc(C(=O)Nc3ccc(Cl)c(C(F)(F)F)c3)c(N)n2)C(=O)N1 [No. 5 (Table 1), reference compound] = 2.03

###

Test Details: Solubility in water of salts (and free bases)
Format: physicochemical
Test Context: water; Table 1, N-H analogs; temp. by No. [°C]: 1 25.0; 2 23.0; 3 26.2; 4 25.1; 5 25.2; 6 24.1; 7 24.5; 8 24.2; 9 24.2; 10 25.7; 11 25.8; read-out: Solubility in water, Molarity × 10^-3
// values below are reported solubility
Assay Readout: solubility (µM)

* CCCC1(C)CN(c2ncc(C(=O)Nc3ccc(Cl)c(C(F)(F)F)c3)c(N)n2)C(=O)N1 (stereo not drawn) [No. 9 (Table 1), reference compound] | 2800
* CCCC1(C)CN(c2ncc(C(=O)Nc3cc(C(F)(F)F)ccc3Cl)c(N)n2)C(=O)N1 (stereo not drawn) [No. 8 (Table 1), reference compound] | 2590
* CC1(C)CN(c2ncc(C(=O)Nc3ccc(F)c(C(F)(F)F)c3)c(N)n2)C(=O)N1 [No. 3 (Table 1), reference compound] | 3170

###

// values below are reported change in vivo at 10 mg/kg
Tested on: serum lipoproteins
Test Details: Effect on serum lipoproteins of normolipemic male rats in a subchronic experiment
Assay type: in vivo
Test Context: Rattus norvegicus, po, 10 mg/kg/day, by stomach tube, 7 administrations, read-out: Serum VLDL triglycerides, % change from control at end of treatment
Structures can show the parent of a compound that is named as a salt.
Assay Readout: change in vivo at 10 mg/kg (%)

* CC1(C)CN(c2ncc(C(=O)N(CC3CC3)c3cc(C(F)(F)F)ccc3F)c(N)n2)C(=O)N1 | -68
* CC(C)(C)CN(C(=O)c1cnc(N2CC(C)(C)NC2=O)nc1N)c1cccc(C(F)(F)F)c1 | -40
* CN(C(=O)c1cnc(N2CC(C)(C)NC2=O)nc1N)c1cc(C(F)(F)F)ccc1F | 46
* CCN(C(=O)c1cnc(N2CC(C)(C)NC2=O)nc1N)c1cccc(C(F)(F)F)c1 [Example 2, hydrochloride] | -26
* CC1(C)CN(c2ncc(C(=O)N(CC3CC3)c3cccc(C(F)(F)F)c3)c(N)n2)C(=O)N1 [Example 12, hydrochloride] | -51
* C=CCN(C(=O)c1cnc(N2CC(C)(C)NC2=O)nc1N)c1cccc(C(F)(F)F)c1 | -2
* CC1(C)CN(c2ncc(C(=O)N(c3cccc(C(F)(F)F)c3)C3CCCC3)c(N)n2)C(=O)N1 | -29

###

Tested on: serum lipoproteins
Test Details: Effect on serum lipoproteins of normolipemic male rats in a subchronic experiment
Type: in vivo
Test Context: Rattus norvegicus, po, 30 mg/kg/day, by stomach tube, 7 administrations, read-out: Serum LDL protein, % change from control at end of treatment
Experimental: 3. In vivo, the increased LDL receptor activity in experimental animals is reflected by reduction in the lipoprotein fractions which can be metabolized by the LDL receptor (apoB/E receptor), i.e. a reduction in the LDL and VLDL levels is observed. The following test was carried out: Effect on serum lipoproteins of normolipemic male rats in a subchronic experiment […]
Counter-ions that a name gives are not always drawn.
// values below are reported change in vivo at 30 mg/kg
Assay Readout: change in vivo at 30 mg/kg (%)

• CCN(C(=O)c1cnc(N2CC(C)(C)NC2=O)nc1N)c1cccc(C(F)(F)F)c1 [Example 2, hydrochloride] = -73
• CC1(C)CN(c2ncc(C(=O)N(CC3CC3)c3cc(C(F)(F)F)ccc3F)c(N)n2)C(=O)N1 [Example 41] = -36
• CC1(C)CN(c2ncc(C(=O)N(CC3CC3)c3cccc(C(F)(F)F)c3)c(N)n2)C(=O)N1 [Example 12, hydrochloride] = -30
• CCN(C(=O)c1cnc(N2CC(C)(C)NC2=O)nc1N)c1cc(C(F)(F)F)ccc1F [Example 32] = -49
• CCN(C(=O)c1cnc(N2CC(C)NC2=O)nc1N)c1cccc(C(F)(F)F)c1 (stereo not shown) [Example 58, hydrochloride] = -25
• CC1(C)CN(c2ncc(C(=O)N(c3cccc(C(F)(F)F)c3)C3CCCC3)c(N)n2)C(=O)N1 [Example 42] = -29
• CN(C(=O)c1cnc(N2CC(C)(C)NC2=O)nc1N)c1cc(C(F)(F)F)ccc1Cl [Example 29] = -27
